test system: human diffuse large B-cell lymphoma cell line TMD8; assay: Cell proliferation inhibition (CCK-8) in TMD8; type: cell-based; conditions: TMD8 cells, 72 h treatment, read-out: IC50 (half inhibitory concentration) in tumor cells, TMD8
recordedMetric: IC50 (nM)

1) Cc1nc2cccc(NCc3ccc(CN4CCCCCC4)cc3F)c2c(=O)n1C1CCC(=O)NC1=O (centres unmarked) [SIAIS355035] ... 103
2) Cc1nc2cccc(N)c2c(=O)n1C1CCC(=O)NC1=O (centres unmarked) [CC-122, Avadomide, reference compound] ... 492
